# assay: Oral bioavailability in rat at 10 mg/kg
# Format: ADME, organism-based
# condition: in vivo
measured attribute: bioavailability

IN: // lookup bioavailability for `C[C@@H]1C[C@H]([C@H](O)C(C)(C)O)O[C@H]2[C@H]1[C@@]1(C)CC[C@@]34C[C@@]35CC[C@H](O[C@H]3CN([C@H]6CCNC6=O)CCO3)C(C)(C)[C@@H]5CC[C@H]4[C@]1(C)[C@H]2O`
OUT: > 100%

====

Each entry below carries its reported pIC50.
# assay: Modulation of gamma secretase in CHO-2B7 cells assessed as reduction in amyloid beta 42 level after 5 hrs by MSD ELISA
# Assay type: cell-based
# condition: Cricetulus griseus, CHO-2B7, 5 h
Interpret pIC50 as the negative base-10 log of the concentration measured in mol/L.

Recorded results for 4 compounds are shown here.
CCO[C@@H]([C@H]1C[C@@H](C)[C@H]2[C@H](O1)[C@H](O)[C@@]1(C)[C@@H]3CC[C@H]4C(C)(C)[C@@H](O[C@H]5CNCCO5)CC[C@@]45C[C@@]35CC[C@]21C)C(C)(C)O: 7.04
CCO[C@@H]([C@H]1C[C@@H](C)[C@H]2[C@H](O1)[C@H](O)[C@@]1(C)[C@@H]3CC[C@H]4C(C)(C)[C@@H](O[C@H]5CN(CCC(=O)O)CCO5)CC[C@@]45C[C@@]35CC[C@]21C)C(C)(C)O: 6.51
CCO[C@@H]([C@H]1C[C@@H](C)[C@H]2[C@H](O1)[C@H](O)[C@@]1(C)[C@@H]3CC[C@H]4C(C)(C)[C@@H](OC(=O)N5CC[C@@H](C(=O)O)C5)CC[C@@]45C[C@@]35CC[C@]21C)C(C)(C)O: 6.27
CC(C)[C@@H](OC(N)=O)[C@H]1C[C@@H](C)[C@H]2[C@H](O1)[C@H](O)[C@@]1(C)[C@@H]3CC[C@H]4C(C)(C)[C@@H](OC(=O)N5CCOCC5)CC[C@@]45C[C@@]35CC[C@]21C: 5.47

Alright, here's another compound for you.
IN: // lookup pIC50 for `CCO[C@@H]([C@H]1C[C@@H](C)[C@H]2[C@H](O1)[C@H](O)[C@@]1(C)[C@@H]3CC[C@H]4C(C)(C)[C@@H](O[C@H]5CN(C(=O)CC6CN(C)C6)CCO5)CC[C@@]45C[C@@]35CC[C@]21C)C(C)(C)O`
OUT: 6.82
